readout-label: melting point (°C)

Recorded results for 3 molecules are shown here.
{"columns": ["smiles", "melting point [°C]"],
 "data": [
  ["Clc1ccc(-c2cnc3ccc(-c4ccnn4-c4ccc(Cl)cc4)cn23)cc1", 172.5],
  ["Fc1ccc(-c2cnc3ccc(-c4ccnn4-c4ccc(Cl)cc4)cn23)cc1", 147],
  ["N#Cc1ccc(-c2cnc3ccc(-c4ccnn4-c4ccc(C(F)(F)F)cc4)cn23)cc1", 201]
]}

1 = FC(F)(F)c1ccc(-c2cnc3ccc(-c4ccnn4-c4ccc(Cl)cc4)cn23)cc1
2 = Cc1ccc(-n2nccc2-c2ccc3ncc(-c4ccccc4)n3c2)cc1
Q: Task for the reader: decide whether 1 or 2 has the larger melting point. Please indicate the selected item by its label.
A: 1

P = Fc1ccc(-n2nccc2-c2ccc3ncc(-c4ccc(Cl)cc4)n3c2)cc1
Q = CS(=O)(=O)c1ccc(-c2cnc3ccc(-c4ccnn4-c4ccc(Cl)cc4)cn23)cc1
Q: Task for the reader: decide whether P or Q has the larger melting point. Please indicate the selected item by its label.
A: Q
(Q: 259 °C, P: 171 °C)

====

readout-label: melting point (°C)

{"columns": ["smiles", "unit-symbol", "observed-value"],
 "data": [
  ["COc1ccc(-c2cnc3ccc(-c4ccnn4-c4ccc(Cl)cc4)cn23)cc1", "°C", 142],
  ["Fc1ccc(-n2nccc2-c2ccc3ncc(-c4ccc(C(F)(F)F)cc4)n3c2)cc1", "°C", 172],
  ["Cc1ccc(-n2nccc2-c2ccc3ncc(-c4ccc(F)cc4)n3c2)cc1", "°C", 141],
  ["Clc1ccc(-n2nccc2-c2ccc3ncc(-c4ccncc4)n3c2)cc1", "°C", 186],
  ["N#Cc1ccc(-c2cnc3ccc(-c4ccnn4-c4ccc(Cl)cc4)cn23)cc1", "°C", 208],
  ["Fc1cc(Cl)ccc1-c1cnc2ccc(-c3ccnn3-c3ccc(Cl)cc3)cn12", "°C", 148],
  ["Fc1ccc(-n2nccc2-c2ccc3ncc(-c4ccc(Cl)cc4F)n3c2)cc1", "°C", 187],
  ["Fc1ccc(-n2nccc2-c2ccc3ncc(-c4ccc(F)cc4F)n3c2)cc1", "°C", 168],
  ["Fc1ccc(-c2cnc3ccc(-c4ccnn4-c4ccc(Cl)cc4)cn23)c(F)c1", "°C", 152],
  ["c1ccc(-c2cnc3ccc(-c4ccnn4-c4ccccc4)cn23)cc1", "°C", 139],
  ["CS(=O)(=O)c1ccc(-c2cnc3ccc(-c4ccnn4-c4ccc(F)cc4)cn23)cc1", "°C", 226],
  ["Fc1ccc(-c2cnc3ccc(-c4ccnn4-c4ccc(C(F)(F)F)cc4)cn23)cc1", "°C", 147],
  ["N#Cc1ccc(-c2cnc3ccc(-c4ccnn4-c4ccc(F)cc4)cn23)cc1", "°C", 215],
  ["Fc1ccc(-c2cnc3ccc(-c4cncn4-c4ccc(F)cc4)cn23)cc1", "°C", 206],
  ["COc1ccc(-c2cnc3ccc(-c4ccnn4-c4ccc(F)cc4)cn23)cc1", "°C", 162],
  ["Fc1ccc(-n2nccc2-c2ccc3ncc(-c4ccncc4)n3c2)cc1", "°C", 201],
  ["Fc1ccc(-c2cnc3ccc(-c4ccnn4-c4ccc(F)cc4)cn23)cc1", "°C", 172]
]}
